Molecular target: CDK4/cyclin D3 (Homo sapiens (Human))
Sequence (P11802 whole entry, species assumed): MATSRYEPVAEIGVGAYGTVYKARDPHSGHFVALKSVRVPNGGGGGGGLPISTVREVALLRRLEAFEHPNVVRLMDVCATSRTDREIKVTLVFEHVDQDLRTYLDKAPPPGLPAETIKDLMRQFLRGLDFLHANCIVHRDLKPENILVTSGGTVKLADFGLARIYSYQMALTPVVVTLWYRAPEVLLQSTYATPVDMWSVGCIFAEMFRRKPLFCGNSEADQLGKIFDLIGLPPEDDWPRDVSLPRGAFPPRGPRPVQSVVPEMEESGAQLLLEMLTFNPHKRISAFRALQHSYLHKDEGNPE
Sequence (P30281 whole entry partner, species assumed): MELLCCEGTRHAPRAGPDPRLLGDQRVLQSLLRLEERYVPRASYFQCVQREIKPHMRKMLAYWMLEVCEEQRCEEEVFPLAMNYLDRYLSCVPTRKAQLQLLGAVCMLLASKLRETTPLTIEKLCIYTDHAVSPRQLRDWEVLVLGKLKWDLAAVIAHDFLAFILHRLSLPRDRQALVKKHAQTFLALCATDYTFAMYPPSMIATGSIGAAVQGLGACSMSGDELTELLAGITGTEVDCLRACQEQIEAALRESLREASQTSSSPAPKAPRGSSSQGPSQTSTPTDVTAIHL
Assay: Kinase activity assay (Caliper Mobility Shift Assay), CDK4/cyclin D3
Settings: 10 nM kinase, 250 uM ATP
pIC50: −log10 of the molar value.
endpoint: pIC50

As a guide, the following entries are already answered.
chemical_string=CC(C)n1nnc2ccc3cnc(NC4CCN(S(C)(=O)=O)CC4)nc3c21 result_number=8.52
chemical_string=C[C@@]1(O)CCC[C@H]1n1nnc2ccc3cnc(NC4CCN(S(C)(=O)=O)CC4)nc3c21 result_number=8.30
chemical_string=CC(C)n1nnc2c(C(F)F)cc3cnc(NC4CCN(S(C)(=O)=O)CC4)nc3c21 result_number=8.52
chemical_string=CCS(=O)(=O)N1CCC(Nc2ncc3cc(C(F)F)c4nnn(C(C)C)c4c3n2)CC1 result_number=8.52
chemical_string=CC(C)n1nnc2ccc3cnc(N[C@H]4CC[C@H](N5CCN(C6CCCC6)CC5)CC4)nc3c21 result_number=7.40

[a] CC(C)c1noc2ccc3cnc(N[C@H]4CC[C@H](Nc5ncccn5)CC4)nc3c12
[b] CC(C)n1nnc2c(C(F)F)cc3cnc(NC4CCN(S(=O)(=O)C(F)F)CC4)nc3c21
// select label with min value of measured pIC50 from [ a , b ] Kindly give the label for the entry you pick.
a
(a: 7.59, b: 8.52)

====

Molecular target: CDK2/Cyclin A2 (Homo sapiens (Human))
Assay: Kinase activity assay (Caliper Mobility Shift Assay), CDK2/Cyclin A2
pIC50: −log10 of the molar value.
endpoint: pIC50

As a guide, the following entries are already answered.
chemical_string=Cc1cc2cnc(NC3CCN(S(C)(=O)=O)CC3)nc2c2c(C(C)C)noc12 endpoint=pIC50 result_number=9.00
chemical_string=CC(C)c1noc2ccc3cnc(N[C@H]4CC[C@H](NC5CCNCC5)CC4)nc3c12 endpoint=pIC50 result_number=7.92
chemical_string=CC(C)n1nnc2c(Br)cc3cnc(NC4CCN(S(C)(=O)=O)CC4)nc3c21 endpoint=pIC50 result_number=9.00

[1] CC(C)c1noc2ccc3cnc(N[C@H]4CC[C@H](Nc5ncccn5)CC4)nc3c12
[2] CNS(=O)(=O)N1CCC(Nc2ncc3ccc4nnn(C(C)C)c4c3n2)CC1
// select label with min value of measured pIC50 from [ 1 , 2 ] Kindly give the label for the entry you pick.
1
(1: 6.59, 2: 9.70)

====

Molecular target: CDK6/Cyclin D3 (Homo sapiens (Human))
Sequence (Q00534 whole entry, species assumed): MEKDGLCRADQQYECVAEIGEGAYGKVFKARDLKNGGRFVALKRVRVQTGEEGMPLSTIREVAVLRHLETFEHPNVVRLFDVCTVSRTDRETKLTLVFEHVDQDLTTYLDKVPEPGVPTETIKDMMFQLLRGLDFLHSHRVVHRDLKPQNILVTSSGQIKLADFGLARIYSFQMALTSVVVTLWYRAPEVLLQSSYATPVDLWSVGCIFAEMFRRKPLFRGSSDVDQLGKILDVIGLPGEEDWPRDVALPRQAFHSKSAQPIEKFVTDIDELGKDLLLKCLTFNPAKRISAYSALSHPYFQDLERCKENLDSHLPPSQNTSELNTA
Sequence (P30281 whole entry partner, species assumed): as the sequence (P30281 whole entry partner, species assumed) above
Assay: Kinase activity assay (Caliper Mobility Shift Assay), CDK6/Cyclin D3
endpoint: IC50 (nM)

compound=CC(C)c1noc2c(C(F)F)cc3cnc(NC4CCN(S(C)(=O)=O)CC4)nc3c12 result_number=7

[1] C[C@@]1(O)CCC[C@H]1c1noc2c(C(F)F)cc3cnc(NC4CCN(S(C)(=O)=O)CC4)nc3c12
[2] CC(C)n1nnc2ccc3cnc(NC4CCC(NS(C)(=O)=O)CC4)nc3c21 (stereo not shown)
// select label with min value of measured IC50 from [ 1 , 2 ] Kindly give the label for the entry you pick.
1
(1: 8 nM, 2: 15 nM)

====

Biological target: CDK2/Cyclin A2 (Homo sapiens (Human), UniProt P24941)
Assay: Kinase activity assay (Caliper Mobility Shift Assay), CDK2/Cyclin A2
Format: biochemical
pIC50: −log10 of the molar value.
endpoint: pIC50

As a guide, the following entries are already answered.
chemical_string=C[C@@]1(O)CCC[C@H]1n1nnc2c(C(F)F)cc3cnc(NC4CCN(S(C)(=O)=O)CC4)nc3c21 endpoint=pIC50 result_number=9.52
chemical_string=CC(C)c1noc2c(CO)cc3cnc(NC4CCN(S(C)(=O)=O)CC4)nc3c12 endpoint=pIC50 result_number=7.31
chemical_string=CC(C)n1nnc2ccc3cnc(N[C@H]4CC[C@H](N5CCN(C(=O)C6CC6)CC5)CC4)nc3c21 endpoint=pIC50 result_number=6.45
chemical_string=CC(C)n1nnc2c(Cl)cc3cnc(NC4CCN(S(C)(=O)=O)CC4)nc3c21 endpoint=pIC50 result_number=9.40
chemical_string=CC(C)n1nnc2ccc3cnc(NC4CCNCC4)nc3c21 endpoint=pIC50 result_number=6.82

[A] CC(C)c1noc2c(F)cc3cnc(NC4CCN(S(C)(=O)=O)CC4)nc3c12
[B] CC(C)c1noc2ccc3cnc(NC4CCNCC4)nc3c12
Field: entry with larger pIC50 (options A / B ). Kindly give the label for the entry you pick.
A
(A: 9.00, B: 6.60)

[a] CC(C)c1noc2c(Cl)cc3cnc(NC4CCN(S(C)(=O)=O)CC4)nc3c12
[b] CC(C)n1nnc2ccc3cnc(NC4CCN(S(C)(=O)=O)CC4)nc3c21
// select label with min value of measured pIC50 from [ a , b ] Kindly give the label for the entry you pick.
a
